Below is a list of entries, each paired with its recorded EC50 value.
assay: Inhibition of HCV genotype 1b Con1 NS5A expressed in HuH7 cell infected HCV genotype 6a assessed as decrease in viral replication after 3 days by luciferase reporter gene assay

Compound structure: COC(=O)N[C@H](C(=O)N1CCC[C@H]1c1nc2cc(F)c([C@H]3CC[C@H](c4cc5[nH]c([C@@H]6CCCN6C(=O)[C@@H](NC(=O)OC)C(C)C)nc5cc4F)N3c3cc(F)c(N4CCC(c5ccc(F)cc5)CC4)c(F)c3)cc2[nH]1)C(C)C
EC50 [nM]: 0.003

Compound structure: COC(=O)N[C@H](C(=O)N1CCC[C@H]1c1nc2ccc([C@H]3CC[C@H](c4ccc5nc([C@@H]6CCCN6C(=O)[C@@H](NC(=O)OC)C(C)C)[nH]c5c4)N3c3ccc(F)cc3)cc2[nH]1)C(C)C
EC50 [nM]: 0.014

Compound structure: COC(=O)N[C@H](C(=O)N1CCC[C@H]1c1nc2ccc([C@H]3CC[C@H](c4ccc5nc([C@@H]6CCCN6C(=O)[C@@H](NC(=O)OC)C(C)C)[nH]c5c4)N3c3ccc(N4CCC(c5ccccc5)CC4)cc3)cc2[nH]1)C(C)C
EC50 [nM]: 0.402

* * *

experiment: Inhibition of HCV genotype 1b Con1 NS5A expressed in HuH7 cell infected HCV genotype 3a assessed as decrease in viral replication after 3 days by luciferase reporter gene assay
Below is a list of entries, each paired with its recorded log10 of EC50 value.
Endpoint label: log10 of EC50 (log10 of the value in nM)

Compound structure: COC(=O)N[C@H](C(=O)N1CCC[C@H]1c1nc2cc([C@H]3CC[C@H](c4ccc5[nH]c([C@@H]6CCCN6C(=O)[C@@H](NC(=O)OC)C(C)C)nc5c4)N3c3cc(F)c(N4CCCCC4)c(F)c3)ccc2[nH]1)C(C)C
Endpoint label: log10 of EC50
Value measured: -2.10

Compound structure: COC(=O)N[C@H](C(=O)N1CCC[C@H]1c1nc2ccc([C@H]3CC[C@H](c4ccc5nc([C@@H]6CCCN6C(=O)[C@@H](NC(=O)OC)C(C)C)[nH]c5c4)N3c3cc(F)c(N4CCC(c5ccccc5)CC4)c(F)c3)cc2[nH]1)C(C)C
Endpoint label: log10 of EC50
Value measured: -2.22

Compound structure: COC(=O)N[C@H](C(=O)N1CCC[C@H]1C(=O)Nc1ccc([C@@H]2CC[C@@H](c3ccc(NC(=O)[C@@H]4CCCN4C(=O)[C@@H](NC(=O)OC)C(C)C)cc3)N2c2ccc(C(C)(C)C)cc2)cc1)C(C)C
Endpoint label: log10 of EC50
Value measured: -1.72

Compound structure: COC(=O)N[C@H](C(=O)N1CCC[C@H]1c1nc2cc(F)c([C@H]3CC[C@H](c4cc5[nH]c([C@@H]6CCCN6C(=O)[C@@H](NC(=O)OC)C(C)C)nc5cc4F)N3c3cc(F)c(N4CCC(c5ccccc5)CC4)c(F)c3)cc2[nH]1)C(C)C
Endpoint label: log10 of EC50
Value measured: -2.40

Compound structure: COC(=O)N[C@H](C(=O)N1CCC[C@H]1c1nc2ccc([C@H]3CC[C@H](c4ccc5nc([C@@H]6CCCN6C(=O)[C@@H](NC(=O)OC)C(C)C)[nH]c5c4)N3c3ccc(N4CCC(c5ccccc5)CC4)cc3)cc2[nH]1)C(C)C
Endpoint label: log10 of EC50
Value measured: -0.32

Compound structure: COC(=O)N[C@H](C(=O)N1CCC[C@H]1c1nc2ccc([C@H]3CC[C@H](c4ccc5nc([C@@H]6CCCN6C(=O)[C@@H](NC(=O)OC)C(C)C)[nH]c5c4)N3c3ccc(N4CCOCC4)c(F)c3)cc2[nH]1)C(C)C
Endpoint label: log10 of EC50
Value measured: -0.45

* * *

Below is a list of entries, each paired with its recorded pEC50 value.
test: Inhibition of HCV genotype 1b Con1 NS5A expressed in HuH7 cell infected HCV genotype 3a assessed as decrease in viral replication after 3 days by luciferase reporter gene assay
pEC50: −log10 of the molar value.

Compound structure: COC(=O)N[C@H](C(=O)N1CCC[C@H]1c1nc2cc(F)c([C@H]3CC[C@H](c4cc5[nH]c([C@@H]6CCCN6C(=O)[C@@H](NC(=O)OC)[C@@H](C)OC)nc5cc4F)N3c3cc(F)c(N4CCC(c5ccccc5)CC4)c(F)c3)cc2[nH]1)[C@@H](C)OC
pEC50: 11.52

Compound structure: COC(=O)N[C@H](C(=O)N1CCC[C@H]1c1nc2ccc([C@H]3CC[C@H](c4ccc5nc([C@@H]6CCCN6C(=O)[C@@H](NC(=O)OC)C(C)C)[nH]c5c4)N3c3cc(Cl)c(N4CCCCC4)c(Cl)c3)cc2[nH]1)C(C)C
pEC50: 10.96

Compound structure: COC(=O)N[C@H](C(=O)N1CCC[C@H]1c1nc2ccc([C@H]3CC[C@H](c4ccc5nc([C@@H]6CCCN6C(=O)[C@@H](NC(=O)OC)C(C)C)[nH]c5c4)N3c3ccc(Oc4ccccc4)cc3)cc2[nH]1)C(C)C
pEC50: 10.96

Compound structure: COC(=O)N[C@H](C(=O)N1CCC[C@H]1c1nc2ccc([C@H]3CC[C@H](c4ccc5nc([C@@H]6CCCN6C(=O)[C@@H](NC(=O)OC)C(C)C)[nH]c5c4)N3c3ccc(-c4ccccc4)cc3)cc2[nH]1)C(C)C
pEC50: 10.80

* * *

assay: Inhibition of HCV genotype 1b Con1 NS5A expressed in HuH7 cell infected HCV genotype 6a assessed as decrease in viral replication after 3 days by luciferase reporter gene assay
Below is a list of entries, each paired with its recorded EC50 value.

Compound structure: COC(=O)N[C@H](C(=O)N1CCC[C@H]1c1nc2ccc([C@H]3CC[C@H](c4ccc5nc([C@@H]6CCCN6C(=O)[C@@H](NC(=O)OC)C(C)C)[nH]c5c4)N3c3ccc(Cl)cc3)cc2[nH]1)C(C)C
Unit tag: pM
EC50: 8
//
Compound structure: COC(=O)N[C@H](C(=O)N1CCC[C@H]1c1nc2cc(F)c([C@H]3CC[C@H](c4cc5[nH]c([C@@H]6CCCN6C(=O)[C@@H](NC(=O)OC)C6CCOCC6)nc5cc4F)N3c3cc(F)c(N4CCC(c5ccccc5)CC4)c(F)c3)cc2[nH]1)C1CCOCC1
Unit tag: pM
EC50: 12
//
Compound structure: COC(=O)N[C@H](C(=O)N1CCC[C@H]1c1nc2ccc([C@H]3CC[C@H](c4ccc5nc([C@@H]6CCCN6C(=O)[C@@H](NC(=O)OC)C(C)C)[nH]c5c4)N3c3cc(F)c(N4CCC(c5ccccc5)CC4)c(F)c3)cc2[nH]1)C(C)C
Unit tag: pM
EC50: 8
//
Compound structure: COC(=O)N[C@H](C(=O)N1CCC[C@H]1c1nc2cc(F)c([C@H]3CC[C@H](c4cc5[nH]c([C@@H]6CCCN6C(=O)[C@@H](NC(=O)OC)C(C)C)nc5cc4F)N3c3cc(F)c(N4CCC(c5ccccc5)CC4)c(F)c3)cc2[nH]1)C(C)C
Unit tag: pM
EC50: 9

* * *

assay: Inhibition of HCV genotype 1b Con1 NS5A expressed in HuH7 cell infected HCV genotype 4a assessed as decrease in viral replication after 3 days by luciferase reporter gene assay
Below is a list of entries, each paired with its recorded EC50 value.

Compound structure: COC(=O)N[C@H](C(=O)N1CCC[C@H]1c1nc2ccc([C@H]3CC[C@H](c4ccc5nc([C@@H]6CCCN6C(=O)[C@@H](NC(=O)OC)C(C)C)[nH]c5c4)N3c3ccc(N4CCOCC4)c(F)c3)cc2[nH]1)C(C)C
EC50, nM: 0.17
//
Compound structure: COC(=O)N[C@H](C(=O)N1CCC[C@H]1c1nc2ccc([C@H]3CC[C@H](c4ccc5nc([C@@H]6CCCN6C(=O)[C@@H](NC(=O)OC)C(C)C)[nH]c5c4)N3c3ccc(N4CCOCC4)cc3)cc2[nH]1)C(C)C
EC50, nM: 0.316
//
Compound structure: COC(=O)N[C@H](C(=O)N1CCC[C@H]1c1nc2ccc([C@H]3CC[C@H](c4ccc5nc([C@@H]6CCCN6C(=O)[C@@H](NC(=O)OC)C(C)C)[nH]c5c4)N3c3ccc(C4CC4)cc3)cc2[nH]1)C(C)C
EC50, nM: 0.02

* * *

Below is a list of entries, each paired with its recorded EC50 value.
experiment: Inhibition of HCV genotype 1b Con1 NS5A expressed in HuH7 cell infected HCV genotype 3a assessed as decrease in viral replication after 3 days by luciferase reporter gene assay
Endpoint label: EC50 (nM)

Compound structure: COC(=O)N[C@H](C(=O)N1CCC[C@H]1c1nc2cc(F)c([C@H]3CC[C@H](c4cc5[nH]c([C@@H]6CCCN6C(=O)[C@@H](NC(=O)OC)C(C)C)nc5cc4F)N3c3cc(F)c(N4CCC(c5ccc(F)cc5)CC4)c(F)c3)cc2[nH]1)C(C)C
Value measured: 0.001
//
Compound structure: COC(=O)N[C@H](C(=O)N1CCC[C@H]1c1nc2ccc([C@H]3CC[C@H](c4ccc5nc([C@@H]6CCCN6C(=O)[C@@H](NC(=O)OC)C(C)C)[nH]c5c4)N3c3ccc(C4CCCCC4)cc3)cc2[nH]1)C(C)C
Value measured: 0.008
//
Compound structure: COC(=O)N[C@H](C(=O)N1CCC[C@H]1c1nc2ccc([C@H]3CC[C@H](c4ccc5nc([C@@H]6CCCN6C(=O)[C@@H](NC(=O)OC)C(C)C)[nH]c5c4)N3c3cc(F)c(N4CCC(c5ccc(F)cc5)CC4)c(F)c3)cc2[nH]1)C(C)C
Value measured: 0.013
//
Compound structure: COC(=O)N[C@H](C(=O)N1CCC[C@H]1c1nc2ccc([C@H]3CC[C@H](c4ccc5nc([C@@H]6CCCN6C(=O)[C@@H](NC(=O)OC)C(C)C)[nH]c5c4)N3c3ccc(Cl)cc3)cc2[nH]1)C(C)C
Value measured: 0.012
//
Compound structure: COC(=O)N[C@H](C(=O)N1CCC[C@H]1c1nc2cc(F)c([C@H]3CC[C@H](c4cc5[nH]c([C@@H]6CCCN6C(=O)[C@@H](NC(=O)OC)C6CCOCC6)nc5cc4F)N3c3cc(F)c(N4CCC(c5ccc(F)cc5)CC4)c(F)c3)cc2[nH]1)C1CCOCC1
Value measured: 0.007
//
Compound structure: COC(=O)N[C@H](C(=O)N1CCC[C@H]1c1nc2ccc([C@H]3CC[C@H](c4ccc5nc([C@@H]6CCCN6C(=O)[C@@H](NC(=O)OC)C(C)C)[nH]c5c4)N3c3ccc(F)cc3)cc2[nH]1)C(C)C
Value measured: 0.031
//
Compound structure: COC(=O)N[C@H](C(=O)N1CCC[C@H]1c1nc2cc(F)c([C@H]3CC[C@H](c4cc5[nH]c([C@@H]6CCCN6C(=O)[C@@H](NC(=O)OC)C6CCOCC6)nc5cc4F)N3c3cc(F)c(N4CCC(c5ccccc5)CC4)c(F)c3)cc2[nH]1)C1CCOCC1
Value measured: 0.011
//
Compound structure: COC(=O)N[C@H](C(=O)N1CCC[C@H]1c1nc2ccc([C@H]3CC[C@H](c4ccc5nc([C@@H]6CCCN6C(=O)[C@@H](NC(=O)OC)C(C)C)[nH]c5c4)N3c3ccc(N4CCOCC4)cc3)cc2[nH]1)C(C)C
Value measured: 1.2
//
Compound structure: COC(=O)N[C@H](C(=O)N1CCC[C@H]1c1nc2ccc([C@H]3CC[C@H](c4ccc5nc([C@@H]6CCCN6C(=O)[C@@H](NC(=O)OC)C(C)C)[nH]c5c4)N3c3ccc(C(C)(C)C)cc3)cc2[nH]1)C(C)C
Value measured: 0.006
